test system: Hepatotoxicity;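 also: combined hepatic side effect score as listed in the training data of the Drug Induced Liver Injury Prediction System (DILIps)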
Lab note: anything with HepSE_Combined Scores below 1 is marked true; values at 1 or higher are marked false.

{"columns": ["MOLECULE", "GROUP LABEL"],
 "data": [
  ["O=C1Cc2cc(CCN3CCN(c4nsc5ccccc45)CC3)c(Cl)cc2N1 [ZIPRASIDONE]", "false"],
  ["CN(Cc1ccc(C(C)(C)C)cc1)Cc1cccc2ccccc12 [BUTENAFINE]", "true"],
  ["CC(COc1ccccc1)N(CCCl)Cc1ccccc1 (configuration not stated) [PHENOXYBENZAMINE]", "true"],
  ["C[C@](N)(Cc1ccc(O)c(O)c1)C(=O)O [METHYLDOPA]", "false"],
  ["COCC(=O)Nc1c(I)c(C(=O)NCC(O)CO)c(I)c(C(=O)N(C)CC(O)CO)c1I (configuration not stated) [IOPROMIDE]", "true"],
  ["CC[C@@H](CO)NC(=O)[C@@H]1C=C2c3cccc4c3c(cn4C)C[C@H]2N(C)C1 [METHYSERGIDE]", "true"],
  ["Nc1nc(O)c2ncn(COC(CO)CO)c2n1 [GANCICLOVIR]", "false"],
  ["COc1cc2nc(N3CCN(C(=O)C4COc5ccccc5O4)CC3)nc(N)c2cc1OC (configuration not stated) [DOXAZOSIN]", "false"],
  ["CC1=C(/C=C/C(C)=C/C=C/C(C)=C/C(=O)O)C(C)(C)CCC1 [TRETINOIN]", "false"],
  ["CC[C@@H]1C(=O)OC[C@@H]1Cc1cncn1C [PILOCARPINE]", "false"],
  ["CCC1=C[C@@H]2CN(C1)Cc1c([nH]c3ccccc13)[C@@](C(=O)OC)(c1cc3c(cc1OC)N(C)[C@H]1[C@@](O)(C(=O)OC)[C@H](OC(C)=O)[C@]4(CC)C=CCN5CC[C@]31[C@@H]54)C2 [VINORELBINE]", "true"],
  ["[Cl-].[Na+] [SODIUM CHLORIDE]", "true"],
  ["Cc1c(-c2ccccc2)oc2c(C(=O)OCCN3CCCCC3)cccc2c1=O [FLAVOXATE]", "true"],
  ["CN(CCOc1ccc(NS(C)(=O)=O)cc1)CCc1ccc(NS(C)(=O)=O)cc1 [DOFETILIDE]", "true"],
  ["CC(N)Cc1c[nH]c2ccccc12 (configuration not stated)", "true"],
  ["CS(=O)(=O)c1ccc(C2=C(c3ccccc3)C(=O)OC2)cc1 [ROFECOXIB]", "false"],
  ["CN[C@H](CC(C)C)C(=O)N[C@H]1C(=O)N[C@@H](CC(N)=O)C(=O)N[C@H]2C(=O)N[C@H]3C(=O)N[C@H](C(=O)N[C@H](C(=O)O)c4cc(O)cc(O)c4-c4cc3ccc4O)[C@H](O)c3ccc(c(Cl)c3)Oc3cc2cc(c3O[C@@H]2O[C@H](CO)[C@@H](O)[C@H](O)[C@H]2O[C@H]2C[C@](C)(N)[C@H](O)[C@H](C)O2)Oc2ccc(cc2Cl)[C@H]1O [VANCOMYCIN]", "true"],
  ["CC(C)OC(=O)CCC/C=C\\C[C@@H]1[C@@H](/C=C/[C@@H](O)COc2cccc(C(F)(F)F)c2)[C@H](O)C[C@@H]1O [TRAVOPROST]", "true"],
  ["CC1(C)O[C@@H]2C[C@H]3[C@@H]4C[C@H](F)C5=CC(=O)C=C[C@]5(C)[C@H]4[C@@H](O)C[C@]3(C)[C@]2(C(=O)CO)O1 [FLUNISOLIDE]", "true"],
  ["CO/N=C(\\C(=O)N[C@@H]1C(=O)N2C(C(=O)O)=C(COC(N)=O)CS[C@H]12)c1ccco1 [CEFUROXIME]", "false"],
  ["CC(NC(C)(C)C)C(=O)c1cccc(Cl)c1 (configuration not stated) [BUPROPION]", "false"],
  ["CC(=O)Oc1ccccc1C(=O)O [ASPIRIN]", "true"]
]}
